# Tested on: Salmonella typhimurium
# ASSAY_NOTES: Antimicrobial activity against Salmonella Typhimurium NCIM 2501 after 24 hrs by serial dilution method
# Assay type: functional, Salmonella enterica subsp. enterica serovar Typhimurium
# CONDITION_DETAILS: Salmonella enterica, NCIM 2501, 24 h
RECORDED_ENDPOINT: MIC (µg/mL)
One number for each entry, in µg/mL.

Guide cases for MIC, answers given:
> print(dat)
                                   compound  recorded.endpoint  reported.value
1  CC1(C)CC(=O)C2=C(C1)Nc1c(ccc3ccccc13)C2c1cccc([N+](=O)[O-])c1 (stereo not given)                MIC            15.6
2  CC1(C)CC(=O)C2=C(C1)Nc1c(ccc3ccccc13)C2c1ccccc1 (stereo not given)                MIC            62.5
3  CC1(C)CC(=O)C2=C(C1)Nc1c(ccc3ccccc13)C2c1cccc(Cl)c1 (stereo not given)                MIC            62.5
4  O=C1CCCC2=C1C(c1ccc(O)cc1)c1ccc3ccccc3c1N2 (stereo not given)                MIC             125
5  CC1(C)CC(=O)C2=C(C1)Nc1c(ccc3ccccc13)C2c1ccc(O)cc1 (stereo not given)                MIC            31.2

// for each compound below, give its MIC
1. CC1(C)CC(=O)C2=C(C1)Nc1c(ccc3ccccc13)C2c1ccccc1O (stereo not given)
2. O=C1CCCC2=C1C(c1ccc(Cl)cc1)c1ccc3ccccc3c1N2 (stereo not given)
3. CC1(C)CC(=O)C2=C(C1)Nc1c(ccc3ccccc13)C2c1ccc(Cl)cc1 (stereo not given)
4. O=C1CCCC2=C1C(c1cccc([N+](=O)[O-])c1)c1ccc3ccccc3c1N2 (stereo not given)
5. CC1(C)CC(=O)C2=C(C1)Nc1c(ccc3ccccc13)C2c1ccccc1Cl (stereo not given)

Given back:
[31.2, 62.5, 31.2, 62.5, 31.2]

* * *

# Tested on: Salmonella typhimurium
# ASSAY_NOTES: Antimicrobial activity against Salmonella Typhimurium NCIM 2501 at 500 ug/disk after 24 hrs by disk diffusion method
# Type: functional, Salmonella enterica subsp. enterica serovar Typhimurium
# CONDITION_DETAILS: Salmonella enterica, NCIM 2501, 24 h; read-out: DIZ
RECORDED_ENDPOINT: zone of inhibition at 500 µg/disc (mm)
One number for each entry, in mm.

Guide cases for zone of inhibition at 500 µg/disc, answers given:
> print(dat)
                                   compound  reported.value
1  CC1(C)CC(=O)C2=C(C1)Nc1c(ccc3ccccc13)C2c1ccc(O)cc1 (stereo not given)               9
2  CC1(C)CC(=O)C2=C(C1)Nc1c(ccc3ccccc13)C2c1ccc(Cl)cc1 (stereo not given)               9
3  O=C1CCCC2=C1C(c1cccc([N+](=O)[O-])c1)c1ccc3ccccc3c1N2 (stereo not given)               7

// for each compound below, give its zone of inhibition at 500 µg/disc
1. O=C1CCCC2=C1C(c1ccc(Cl)cc1)c1ccc3ccccc3c1N2 (stereo not given)
2. CC1(C)CC(=O)C2=C(C1)Nc1c(ccc3ccccc13)C2c1cccc(Cl)c1 (stereo not given)
3. CC1(C)CC(=O)C2=C(C1)Nc1c(ccc3ccccc13)C2c1ccccc1O (stereo not given)

Given back:
9
8
10

// for each compound below, give its zone of inhibition at 500 µg/disc
1. CC1(C)CC(=O)C2=C(C1)Nc1c(ccc3ccccc13)C2c1cccc([N+](=O)[O-])c1 (stereo not given)
2. O=C1CCCC2=C1C(c1ccc(O)cc1)c1ccc3ccccc3c1N2 (stereo not given)
3. CC1(C)CC(=O)C2=C(C1)Nc1c(ccc3ccccc13)C2c1ccccc1 (stereo not given)
4. CC1(C)CC(=O)C2=C(C1)Nc1c(ccc3ccccc13)C2c1ccccc1Cl (stereo not given)

Given back:
1. 10
2. 7
3. 9
4. 10

* * *

# System: Proteus vulgaris
# ASSAY_NOTES: Antimicrobial activity against Proteus vulgaris NCIM 2027 at 1000 ug/disk after 24 hrs by disk diffusion method
# Type: functional
# CONDITION_DETAILS: NCIM 2027, 24 h, read-out: DIZ
RECORDED_ENDPOINT: zone of inhibition at 1000 µg/disc

Guide cases for zone of inhibition at 1000 µg/disc, answers given:
> print(dat)
                                   compound     tested.system  reported.value
1  CC1(C)CC(=O)C2=C(C1)Nc1c(ccc3ccccc13)C2c1ccc(O)cc1 (stereo unspecified)  Proteus vulgaris            9 mm
2  O=C1CCCC2=C1C(c1ccc(Cl)cc1)c1ccc3ccccc3c1N2 (stereo unspecified)  Proteus vulgaris            9 mm
3  CC1(C)CC(=O)C2=C(C1)Nc1c(ccc3ccccc13)C2c1ccc(Cl)cc1 (stereo unspecified)  Proteus vulgaris           10 mm
4  CC1(C)CC(=O)C2=C(C1)Nc1c(ccc3ccccc13)C2c1cccc([N+](=O)[O-])c1 (stereo unspecified)  Proteus vulgaris            9 mm
5  O=C1CCCC2=C1C(c1cccc([N+](=O)[O-])c1)c1ccc3ccccc3c1N2 (stereo unspecified)  Proteus vulgaris            9 mm

For the next question, use this compound.
Asked: Would you kindly share the measured zone of inhibition at 1000 µg/disc for O=C1CCCC2=C1C(c1ccc(O)cc1)c1ccc3ccccc3c1N2 (stereo unspecified) ?
Given back: 9 mm

* * *

# Tested on: Aspergillus fumigatus
# ASSAY_NOTES: Antimicrobial activity against Aspergillus fumigatus NCIM 902 at 1000 ug/disk after 72 hrs by disk diffusion method
# Format: functional
# CONDITION_DETAILS: NCIM 902, 72 h, read-out: DIZ
RECORDED_ENDPOINT: zone of inhibition at 1000 µg/disc (mm)
One number for each entry, in mm.

> print(dat)
                                   molecule  reported.value
1  O=C1CCCC2=C1C(c1ccc(Cl)cc1)c1ccc3ccccc3c1N2 (stereo unspecified)              10

// for each molecule below, give its zone of inhibition at 1000 µg/disc
1. O=C1CCCC2=C1C(c1ccccc1)c1ccc3ccccc3c1N2 (stereo unspecified)
2. O=C1CCCC2=C1C(c1cccc([N+](=O)[O-])c1)c1ccc3ccccc3c1N2 (stereo unspecified)

Given back:
1. 11
2. 9

// for each molecule below, give its zone of inhibition at 1000 µg/disc
1. CC1(C)CC(=O)C2=C(C1)Nc1c(ccc3ccccc13)C2c1ccc(Cl)cc1 (stereo unspecified)
2. CC1(C)CC(=O)C2=C(C1)Nc1c(ccc3ccccc13)C2c1ccccc1 (stereo unspecified)
3. O=C1CCCC2=C1C(c1ccccc1O)c1ccc3ccccc3c1N2 (stereo unspecified)
4. O=C1CCCC2=C1C(c1ccccc1Cl)c1ccc3ccccc3c1N2 (stereo unspecified)
5. CC1(C)CC(=O)C2=C(C1)Nc1c(ccc3ccccc13)C2c1cccc(Cl)c1 (stereo unspecified)

Given back:
1. 8
2. 10
3. 12
4. 9
5. 9

* * *

# Test system: Staphylococcus
# ASSAY_NOTES: Antimicrobial activity against Staphylococcus albus NCIM 2178 after 24 hrs by serial dilution method
# Assay type: functional
# CONDITION_DETAILS: NCIM 2178, 24 h
What MIC was measured for each of the following?
Numbers only, in µg/mL.

Guide cases for MIC, answers given:
> print(dat)
                                   compound   tested.system  quantity.unit  reported.value
1  O=C1CCCC2=C1C(c1cccc([N+](=O)[O-])c1)c1ccc3ccccc3c1N2 (stereo unspecified)  Staphylococcus          µg/mL            62.5
2  O=C1CCCC2=C1C(c1ccc(Cl)cc1)c1ccc3ccccc3c1N2 (stereo unspecified)  Staphylococcus          µg/mL            62.5
3  CC1(C)CC(=O)C2=C(C1)Nc1c(ccc3ccccc13)C2c1ccc(Cl)cc1 (stereo unspecified)  Staphylococcus          µg/mL             125
4  CC1(C)CC(=O)C2=C(C1)Nc1c(ccc3ccccc13)C2c1ccc(O)cc1 (stereo unspecified)  Staphylococcus          µg/mL             125
5  CC1(C)CC(=O)C2=C(C1)Nc1c(ccc3ccccc13)C2c1cccc([N+](=O)[O-])c1 (stereo unspecified)  Staphylococcus          µg/mL             125

Asked: MIC of O=C1CCCC2=C1C(c1ccc(O)cc1)c1ccc3ccccc3c1N2 (stereo unspecified) on Staphylococcus?
Given back: 62.5

* * *

# System: Bacillus cereus
# ASSAY_NOTES: Antimicrobial activity against Bacillus cereus NCIM 2155 at 1000 ug/disk after 24 hrs by disk diffusion method
# Format: functional
# CONDITION_DETAILS: NCIM 2155, 24 h, read-out: DIZ
RECORDED_ENDPOINT: zone of inhibition at 1000 µg/disc
Express the reported value numerically, then name its unit.

Guide cases for zone of inhibition at 1000 µg/disc, answers given:
> print(dat)
                                   compound  reported.value
1  CC1(C)CC(=O)C2=C(C1)Nc1c(ccc3ccccc13)C2c1cccc([N+](=O)[O-])c1 (stereo unspecified)           13 mm
2  O=C1CCCC2=C1C(c1ccccc1O)c1ccc3ccccc3c1N2 (stereo unspecified)            8 mm
3  CC1(C)CC(=O)C2=C(C1)Nc1c(ccc3ccccc13)C2c1ccccc1Cl (stereo unspecified)           11 mm

// for each compound below, give its zone of inhibition at 1000 µg/disc
1. O=C1CCCC2=C1C(c1ccc(Cl)cc1)c1ccc3ccccc3c1N2 (stereo unspecified)
2. O=C1CCCC2=C1C(c1cccc([N+](=O)[O-])c1)c1ccc3ccccc3c1N2 (stereo unspecified)
3. CC1(C)CC(=O)C2=C(C1)Nc1c(ccc3ccccc13)C2c1ccccc1 (stereo unspecified)
4. CC1(C)CC(=O)C2=C(C1)Nc1c(ccc3ccccc13)C2c1ccc(Cl)cc1 (stereo unspecified)

Given back:
13 mm
10 mm
12 mm
13 mm

// for each compound below, give its zone of inhibition at 1000 µg/disc
1. O=C1CCCC2=C1C(c1ccccc1)c1ccc3ccccc3c1N2 (stereo unspecified)
2. CC1(C)CC(=O)C2=C(C1)Nc1c(ccc3ccccc13)C2c1ccc(O)cc1 (stereo unspecified)
3. CC1(C)CC(=O)C2=C(C1)Nc1c(ccc3ccccc13)C2c1cccc(Cl)c1 (stereo unspecified)
4. CC1(C)CC(=O)C2=C(C1)Nc1c(ccc3ccccc13)C2c1ccccc1O (stereo unspecified)

Given back:
["9 mm", "11 mm", "10 mm", "10 mm"]
